# TARGET_OR_TEST_SYSTEM: T1, human CD71 extracellular domain (human, UniProt P02786 89-760, biotinylated)
# T1 construct: extracellular domain; also called hCD71; huCD71 ECD
# T1 sequence (P02786 other isoform, or with tags, fused parts or gaps): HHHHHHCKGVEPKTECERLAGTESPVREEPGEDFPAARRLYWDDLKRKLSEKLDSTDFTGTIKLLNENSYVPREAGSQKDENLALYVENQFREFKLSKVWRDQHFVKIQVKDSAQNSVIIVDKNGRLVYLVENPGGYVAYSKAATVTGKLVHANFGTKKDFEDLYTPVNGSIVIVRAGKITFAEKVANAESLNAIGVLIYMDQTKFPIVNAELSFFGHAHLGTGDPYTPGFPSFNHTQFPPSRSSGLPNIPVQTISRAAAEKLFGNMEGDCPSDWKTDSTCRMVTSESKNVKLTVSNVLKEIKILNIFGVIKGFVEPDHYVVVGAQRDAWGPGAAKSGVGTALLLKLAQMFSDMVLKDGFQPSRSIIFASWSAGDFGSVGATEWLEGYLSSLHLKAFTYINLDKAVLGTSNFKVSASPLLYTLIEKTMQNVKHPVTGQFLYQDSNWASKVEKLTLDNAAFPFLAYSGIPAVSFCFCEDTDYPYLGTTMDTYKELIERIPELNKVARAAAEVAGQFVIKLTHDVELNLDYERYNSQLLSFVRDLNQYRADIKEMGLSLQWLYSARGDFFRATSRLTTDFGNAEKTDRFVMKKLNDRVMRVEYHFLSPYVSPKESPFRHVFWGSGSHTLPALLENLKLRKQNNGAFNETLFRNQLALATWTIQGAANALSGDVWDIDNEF
# PROTOCOL_SUMMARY: solution ELISA screen, signal ratio to HSA control
Overview of recorded hCD71:HSA for various binders
# unit: ratio | format: bare number

Some solved cases for reference:
SEQ ID NO 229 (designed binder, not shown: small tags and cut ends) MLPAPKNLVVSRVTEDSARLSWTAPDAAFDSFYIAYAEPRPDGEAIQLLVPGSERSYDLTGLKPGTEYSVLIHGVKGGLLSSPLVAHFTT : 93.4
SEQ ID NO 228 (designed binder, not shown: small tags and cut ends) MLPAPKNLVVSRVTEDSARLSWTAPDAAFDSFYIAYAEPRPDGEAIVLRVPGSERSYDLTGLKPGTEYSVLIHGVKGGLLSSPLAASFTT : 131
SEQ ID NO 205 (designed binder, not shown: small tags and cut ends) MLPAPKNLVVSRVTEDSARLSWTAPDAAFDSFFIGYLEPQPPGEAILLGVPGSERSYDLTGLKPGTEYNVTIQGVKGGFPSMPLHPLVALFTT : 18.1

Challenge: Name the recorded hCD71:HSA of the item SEQ ID NO 243 (designed binder, not shown: small tags and cut ends) MLPAPKNLVVSRVTEDSARLSWTAPDAAFDSFFIGYLEPQPPGEAIHLAVPGSERSYDLTGLKPGTEYNVTIQGVKGGFPSVPLAAVFTT in your answer.
Response given: 63.8

These data points were gathered from patent US20220332795A1.
